- target_under_test: Histone-lysine N-methyltransferase EHMT2 (Homo sapiens) (UniProt Q96KQ7)
- Sequence (Q96KQ7 913-1193 limits assumed): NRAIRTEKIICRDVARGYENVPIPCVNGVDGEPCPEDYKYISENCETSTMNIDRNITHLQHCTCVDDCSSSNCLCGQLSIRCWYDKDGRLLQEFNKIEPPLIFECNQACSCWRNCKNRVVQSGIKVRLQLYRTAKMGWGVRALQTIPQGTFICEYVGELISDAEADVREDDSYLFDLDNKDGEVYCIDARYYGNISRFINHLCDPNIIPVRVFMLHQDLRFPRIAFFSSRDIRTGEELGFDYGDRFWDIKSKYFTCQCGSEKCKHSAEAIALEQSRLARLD
- assay_info: qHTS Assay for Inhibitors of Histone Lysine Methyltransferase G9a; also: nearly all actives have a fitted effect of over 75% in size
- condition_description: G9a H3K9 monomethylation, AlphaScreen, 2 h; series mostly up to 59 µM
Out of some 350,000 compounds screened, about 31,000 (8.9%) were called active. About 15% were inconclusive and are not listed. Calls follow the shape of the dose curve; as a rule, active = well fitted inhibition curve with a large enough effect; inconclusive = small, poorly fitted or top-dose-only effect; inactive = no such curve, though single readings can be large or run the other way. The full list was thinned out, with actives kept by preference.
Give your call using only these classes: active, inactive

The following compounds have reported results that may help.
CCN(CC)c1ccc(/C=N/NC(=O)CNC(=O)c2cccnc2)cc1	inactive
CCCn1ccc2c(OCC(=O)NCc3ccc(F)cc3)cccc2c1=O	inactive
Cc1cc(OCC(=O)N2CCN(c3ncccn3)CC2)ccc1Cl	inactive
COc1cc(C(=O)NCC(=O)N2CC=C(c3ccccc3)CC2)cc(OC)c1OC	inactive
c1cnc(N2CCN(c3ccc4ccccc4n3)CC2)nc1	inactive
Cc1ccc(-c2nc(-c3ccncc3)no2)c(C)c1	inactive
CCOCCn1c(-c2ccccc2)nc2ccccc21	inactive
CCN(CC)c1ccc(/C=N/NC(=O)CNC(=O)c2cccs2)cc1	active
O=C(Nc1ccc(F)cc1F)c1cnn(-c2ccc(F)cc2)c1-n1cccc1	inactive
O=C(Nc1ccc(C2CC2(Cl)Cl)cc1)c1cccc([N+](=O)[O-])c1 (configuration not stated)	inactive

Query :: Which outcome was entered for the compound COC(=O)c1ccc(NC(=O)CCc2c(C)nc3c(c(C)nn3-c3ccc(C)cc3)c2C)cc1 in this test?
Result :: inactive

Query :: Hey, what did the test say about Cc1ccc2c(c1)N(CC(=O)NCC1CCCO1)C(=O)CO2 (configuration not stated) ?
Result :: inactive

* * *

- target_under_test: Histone-lysine N-methyltransferase EHMT2 (Homo sapiens) (UniProt Q96KQ7)
- assay_info: qHTS Assay for Inhibitors of Histone Lysine Methyltransferase G9a; also: nearly all actives have a fitted effect of over 75% in size; also: potency is read from the fitted curve at half-maximal effect
- condition_description: G9a H3K9 monomethylation, AlphaScreen, 2 h; series mostly up to 59 µM
The whole screen tested about 350,000 compounds, of which about 31,000 (8.9%) were called active. About 15% were inconclusive and are not listed. This is one part of a sample in which actives are shown more often than they occur.
measured_parameter: Potency

Examples from the recorded data:
Cc1nn(C(C)C(=O)NCCc2ccccc2)c(=O)c2c1sc1ccccc12 (stereo unspecified)	inactive
O=C(Cc1ccc(Cl)cc1)NC(=S)Nc1ccccc1O	inactive
O=C(CN1CCCCC1)Nc1ccccc1C(=O)NC1CC1	inactive
CCCCn1c(N)c(N(CC(C)C)C(=O)CSc2ccc([N+](=O)[O-])cc2)c(=O)[nH]c1=O	50.1 µM (active)

Give Potency for all molecules that follow.
1. O=C(NNC(=O)c1ccc(Cl)cc1Cl)c1cccs1
2. COc1ccc(NS(=O)(=O)c2ccc(C)c(C(=O)NNC(=O)c3csc(N4CCOCC4)n3)c2)cc1
3. Cc1ccc(NNC(=O)c2c(F)cccc2Cl)cc1Cl
4. O=C(NCCc1ccc(Cl)cc1)c1ccc2nc(CCc3ccccc3)oc2c1
5. CCCCn1c(N)c(N(CC(C)C)C(=O)C2CSC3(C)CCC(=O)N23)c(=O)[nH]c1=O (stereo unspecified)
6. CCCCn1c(N)c(N(CC(C)C)C(=O)c2ccc(-n3c(C)ccc3C)cc2)c(=O)[nH]c1=O
7. O=C(NCCCO)c1nn(-c2ccc(Cl)cc2)nc1CO

Result ::
1: inactive; 2: inactive; 3: inactive; 4: inactive; 5: 50.1 µM (active); 6: 56.2 µM (active); 7: inactive
